Test Target: MAPK1(ERK2) enzyme (Homo sapiens)
Construct: purchased Invitrogen PV3313
Sequence (P28482 whole entry): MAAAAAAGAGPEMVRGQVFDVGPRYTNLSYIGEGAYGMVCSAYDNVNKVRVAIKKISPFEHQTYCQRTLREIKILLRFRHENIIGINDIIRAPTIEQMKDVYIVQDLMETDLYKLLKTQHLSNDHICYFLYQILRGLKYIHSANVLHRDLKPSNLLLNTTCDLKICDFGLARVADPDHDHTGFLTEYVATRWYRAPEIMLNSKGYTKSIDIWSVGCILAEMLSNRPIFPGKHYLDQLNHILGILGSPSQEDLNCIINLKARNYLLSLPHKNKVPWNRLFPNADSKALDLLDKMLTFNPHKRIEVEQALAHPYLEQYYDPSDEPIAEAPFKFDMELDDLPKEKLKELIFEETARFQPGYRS
Procedure Details: Z-Lyte Kinase Assay of ERK2
Assay type: biochemical
Cond: read-out: Example 18 IC50
pIC50: −log10 of the molar value.
Property: pIC50; scope: individual molecules

These solved cases illustrate the format of a correct answer.
Q: Note pIC50 for the molecule shown: `Cc1cnc(Nc2ccnn2C)nc1-c1cc2n(c1)C[C@H](C(F)F)n1c-2nnc1C(F)(F)c1ccccc1Cl`
Result: < 8.00

Q: Note pIC50 for the molecule shown: `Cc1cnc(Nc2ccnn2C)cc1-c1cc2n(c1)C[C@H](CF)n1c-2nnc1C(F)(F)c1sccc1Cl`
Result: ≥ 8.30

Q: Note pIC50 for the molecule shown: `CO[C@H]1Cn2cc(-c3cc(Nc4ccnn4C)ncc3Cl)cc2-c2nnc(C3(C(F)(F)F)CCC3)n2C1`
Result: 8.00 to 8.30

Q: Note pIC50 for the molecule shown: `COc1cc(Nc2ncc(C)c(-c3cc4n(c3)C[C@H](C)n3c-4nnc3C(F)(F)c3ccccc3F)n2)c(C)cn1`
Result: < 8.00

Q: Note pIC50 for the molecule shown: `Cn1nccc1Nc1ncc(F)c(-c2cc3n(c2)C[C@H](CF)n2c-3nnc2C(F)(F)n2cc(Cl)cn2)n1`
Result: ≥ 8.30

Next:
Q: Note pIC50 for the molecule shown: `C[C@H]1Cn2cc(-c3cc(Nc4ccnn4C)ncc3Cl)cc2-c2nnc(C3(C(F)(F)F)CCC3)n21`
Result: ≥ 8.30

Q: Note pIC50 for the molecule shown: `Cc1cnc(Nc2c(F)cnn2C)nc1-c1cc2n(c1)C[C@H](C)n1c-2nnc1C(F)(F)c1ccccc1F`
Result: 8.00 to 8.30

Q: Note pIC50 for the molecule shown: `C[C@H]1CCn2cc(-c3cc(Nc4ccnn4C)ncc3Cl)cc2-c2nnc(C3(C(F)(F)F)CCC3)n21`
Result: 8.00 to 8.30

Q: Note pIC50 for the molecule shown: `Cn1nccc1Nc1cc(-c2cc3n(c2)CC2(CC2)n2c-3nnc2C2(C(F)(F)F)CCC2)c(Cl)cn1`
Result: 8.00 to 8.30

Q: Note pIC50 for the molecule shown: `Cc1cnc(Nc2ccnn2C)nc1-c1cn2c(n1)-c1nnc(C(F)(F)c3ccccc3Cl)n1[C@@H](C)C2`
Result: ≥ 8.30

Q: Note pIC50 for the molecule shown: `CCn1nccc1Nc1ncc(C)c(-c2cc3n(c2)C[C@H](C)n2c-3nnc2C(F)(F)c2ccccc2F)n1`
Result: < 8.00

Q: Note pIC50 for the molecule shown: `Cc1cnc(Nc2ccnn2C)cc1-c1cc2n(c1)C[C@H](CF)n1c-2nnc1C1(C(F)(F)F)CCC1`
Result: ≥ 8.30

Q: Note pIC50 for the molecule shown: `Cn1nccc1Nc1cc(-c2cc3n(c2)CCCn2c(Cc4ccccc4C#N)nnc2-3)c(Cl)cn1`
Result: ≥ 8.30

Q: Note pIC50 for the molecule shown: `Cc1cnc(Nc2ccnn2C)cc1-c1cc2n(c1)C[C@H](CF)n1c-2nnc1C(F)(F)c1ccc(F)c(F)c1`
Result: 8.00 to 8.30

Q: Note pIC50 for the molecule shown: `Cn1nccc1Nc1cc(-c2cc3n(c2)CC2(CC2)Cn2c-3nnc2C2(C(F)(F)F)CCC2)c(Cl)cn1`
Result: ≥ 8.30

Q: Note pIC50 for the molecule shown: `Cc1cnc(Nc2ccnn2C)cc1-c1cc2n(c1)C[C@H](CF)n1c-2nnc1C(F)(F)n1ccc(F)n1`
Result: ≥ 8.30

Q: Note pIC50 for the molecule shown: `Cc1cnc(Nc2nncs2)nc1-c1cc2n(c1)C[C@H](C)n1c-2nnc1C(F)(F)c1ccccc1F`
Result: 8.00 to 8.30

Q: Note pIC50 for the molecule shown: `Cn1nccc1Nc1cc(-c2cc3n(c2)CC(F)(F)Cn2c-3nnc2C(C)(C)C(F)(F)F)c(Cl)cn1`
Result: ≥ 8.30

Q: Note pIC50 for the molecule shown: `Cn1nccc1Nc1cc(-c2cc3n(c2)CC(F)(F)Cn2c-3nnc2C2(C(F)(F)F)CCC2)c(Cl)cn1`
Result: < 8.00

Q: Note pIC50 for the molecule shown: `Cn1nccc1Nc1ncc(Cl)c(-c2cc3c4nnc(CC(F)(F)F)n4ccn3c2)n1`
Result: ≥ 8.30

Q: Note pIC50 for the molecule shown: `Cn1nccc1Nc1cc(-c2cc3n(c2)CCCn2c(COc4ccccc4F)nnc2-3)c(C(F)(F)F)cn1`
Result: < 8.00

Q: Note pIC50 for the molecule shown: `Cc1cnc(Nc2ccnn2C)nc1-c1cc2n(c1)CCCn1c-2nnc1C1(C(F)(F)F)CCCC1`
Result: ≥ 8.30
